Biological target: T1, TNFR1 (Homo sapiens, UniProt P19438)
T1 chain: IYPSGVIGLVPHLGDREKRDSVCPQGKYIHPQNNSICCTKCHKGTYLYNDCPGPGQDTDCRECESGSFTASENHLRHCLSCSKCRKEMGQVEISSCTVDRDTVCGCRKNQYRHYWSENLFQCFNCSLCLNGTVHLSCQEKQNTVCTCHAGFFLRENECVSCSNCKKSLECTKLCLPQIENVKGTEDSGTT
Experiment: yeast display SC50
Parameter: apparent Kd (screen). Scope: all listed entries.
measurementLabel: apparent Kd (screen) (nM)

INSERT INTO assay_data (binder, unitofmeasurement, recordedresult) VALUES
  ('A30P (designed binder) SMEEEVEKAAKEYEKKKKEAIEKHLEKLKPKDKEAAERFLKELEEAAKEYAKDEAKTMSEEEAKRRAKKYKEKVLLSELSEEEQKEIKEAEEKLVRTILKYVEEAAK', 'nM', 11.4),
  ('A46L (designed binder) SMEEEVEKAAKEYEKKKKEAIEKHLEKLKAKDKEAAERFLKELEELAKEYAKDEAKTMSEEEAKRRAKKYKEKVLLSELSEEEQKEIKEAEEKLVRTILKYVEEAAK', 'nM', 12.5),
  ('E82F (designed binder) SMEEEVEKAAKEYEKKKKEAIEKHLEKLKAKDKEAAERFLKELEEAAKEYAKDEAKTMSEEEAKRRAKKYKEKVLLSELSEFEQKEIKEAEEKLVRTILKYVEEAAK', 'nM', 0.539),
  ('K16T (designed binder) SMEEEVEKAAKEYEKTKKEAIEKHLEKLKAKDKEAAERFLKELEEAAKEYAKDEAKTMSEEEAKRRAKKYKEKVLLSELSEEEQKEIKEAEEKLVRTILKYVEEAAK', 'nM', 1.05);
